FYI, the data here is from ChEMBL document CHEMBL5257135.

assay: Cytotoxicity against human C3PV cells assessed as reduction in cell viability incubated for 24 hrs by MTT assay; assay type: toxicity, cell-based; conditions: c3pv
pIC50: −log10 of the molar value.
recorded.metric: pIC50

[[record]]
structure_smiles = "C[C@H]1[C@H](OC(=O)CCC(=O)Oc2cc3ccc(=O)oc3cc2O)O[C@@H]2C[C@]3(C)CC[C@H]4[C@H](C)CC[C@@H]1[C@@]24OO3"
assay_result = 3.16

[[record]]
structure_smiles = "C[C@H]1[C@H](OC(=O)CCC(=O)Oc2ccc3c(C(F)(F)F)cc(=O)oc3c2)O[C@@H]2C[C@]3(C)CC[C@H]4[C@H](C)CC[C@@H]1[C@@]24OO3"
assay_result = 2.97

